- test details: Cytotoxicity CC50
- Format: cell-based
Counter-ions that a name gives are not always drawn.
outcome measure: CC50

Worked cases, answers included:
>>> df
                                   compound  assay_result
0  CN(C)CCCn1c(SCCc2ccccn2)nc2ccc(Cl)cc2c1=O [TG15-124-HCl]       > 10 µM
1  CN(C)CCCn1c(SCCc2c[nH]c3ccccc23)nc2ccc(Cl)cc2c1=O.Cl [TG15-139S, Hydrochloride]       > 10 µM
2  O=C(CCCn1c(=S)[nH]c2ccccc2c1=O)N1CCN(c2ccccc2O)CC1       > 20 µM

Next compound, CC50 to be filled in.
*Q* # get_value(readout='CC50', item= CN(C)CCCn1c(SCCc2c[nH]c3ccccc23)nc2ccc(F)cc2c1=O.Cl [TG15-132S, hydrochloride] )
*A* > 20 µM
